Origin of values: the Immune Epitope Database (IEDB)

subjectOfTest: HLA-B*27:05
procedureDetails: IEDB peptide-MHC binding, purified MHC/direct/fluorescence; filed as Kd, often an IC50 or EC50 that approximates it; bounds were set here for any values at or beyond the usual limits of such assays
conditionParameters: source organism: Escherichia coli O6
pKd: −log10 of the molar value.
measuredProperty: pKd

Quick one: pKd for `TPVWHVTSA` ?
≤ 4.70

###

subjectOfTest: HLA-B*58:01
procedureDetails: IEDB peptide-MHC binding, purified MHC/direct/fluorescence; filed as Kd, often an IC50 or EC50 that approximates it; bounds were set here for any values at or beyond the usual limits of such assays
conditionParameters: source organism: West Nile virus
pKd: −log10 of the molar value.
measuredProperty: pKd

Quick one: pKd for `MLRKKQITV` ?
≤ 4.70

And `TSDYINTSL` ?
≤ 4.70
